Values were extracted from patent US5716986A.

Target: 5-lipoxygenase (5-LO) enzyme (Homo sapiens)
Construct: the enzyme in the cytosol was partially purified by ammonium sulphate fractionation; endogenous in cells; host or cells: human polymorphonuclear leukocytes (sonicated, cytosol, ammonium sulphate fraction)
Assay: Measurement of 5-LO enzyme activity in cell free system prepared from human leukocytes (direct)
Format: biochemical
Details: human polymorphonuclear leukocytes, 0.02 mM arachidonic acid, pH 7.5, 37° C., 5 minutes, read-out: 5-lipoxygenase enzyme inhibition, direct, IC50
pIC50: −log10 of the molar value.
pIC50 of 6 or higher: y. Under 6: n.

As a guide, the following entries are already answered.
>  <Molecule>
Cc1c(C)c2c(c(C)c1O)C1CCCCCC1O2 (centres unmarked)

>  <Discrete Label>
y

$$$$
>  <Molecule>
CC1=C(C)C(=O)C(CCCCC#CCCCC#CCO)=C(C)C1=O [AA-861, reference compound]

>  <Discrete Label>
n

$$$$
>  <Molecule>
Cc1c(C)c2c(c(C)c1O)[C@@H]1CCC[C@@H]1O2 (relative stereo)

>  <Discrete Label>
y

$$$$

Is it the case that CCOc1cc2c(cc1O)[C@@H]1CC=C[C@@H]1O2 (relative stereo) has pIC50 reaching or exceeding 6? n

---

Test system: PAF lethality in mice
Test: PAF induced anaphylactic shock test in mice (PAF lethality)
Type: in vivo
Conditions: Mus musculus, ip, 1 h; male NMRI mice, intraperitoneal, 30 minutes before intravenous PAF 100 μg/kg, mortality at one hour; read-out: PAF lethality in mice ID50
Endpoint: ED50 (mg/kg)
Field format: number, assumed mg/kg, no unit text.

Illustrative cases are given below, each with its answer.
>  <Compound>
Cc1c(C)c2c(c(C)c1O)[C@@H]1CCC[C@@H]1O2 (relative stereo) [Example 2]

>  <Quantitative Result>
16.2

$$$$
>  <Compound>
Cc1c(C)c2c(c(C)c1O)C1CCCCCC1O2 (stereo not shown) [Example 10]

>  <Quantitative Result>
22.5

$$$$
>  <Compound>
COc1cc2c(cc1O)[C@@H]1CCC[C@@H]1O2 (relative stereo) [Example 6]

>  <Quantitative Result>
100

$$$$
>  <Compound>
CC1=C(C)C(=O)C(CCCCC#CCCCC#CCO)=C(C)C1=O [AA-861, reference compound]

>  <Quantitative Result>
58.9

$$$$
>  <Compound>
O=C1CCN(c2ccccc2)N1 [Phenidone, 1-phenyl-3-pyrazolidinone, reference compound]

>  <Quantitative Result>
14.2

$$$$
>  <Compound>
CC(Cc1ccc(O)c(O)c1)C(C)Cc1ccc(O)c(O)c1 (stereo not shown) [NDGA, reference compound]

>  <Quantitative Result>
29.2

$$$$

Kindly review the next compound as well.
Give the reported ED50 for this compound. Cc1c(O)cc2c(c1C)O[C@H]1CCC[C@@H]21 (relative stereo) [Example 4] 65.2

---

Target: 5-lipoxygenase (5-LO) enzyme (Homo sapiens)
Construct: the enzyme in the cytosol was partially purified by ammonium sulphate fractionation; endogenous in cells; host or cells: human polymorphonuclear leukocytes (sonicated, cytosol, ammonium sulphate fraction)
Sequence (P09917 1-674): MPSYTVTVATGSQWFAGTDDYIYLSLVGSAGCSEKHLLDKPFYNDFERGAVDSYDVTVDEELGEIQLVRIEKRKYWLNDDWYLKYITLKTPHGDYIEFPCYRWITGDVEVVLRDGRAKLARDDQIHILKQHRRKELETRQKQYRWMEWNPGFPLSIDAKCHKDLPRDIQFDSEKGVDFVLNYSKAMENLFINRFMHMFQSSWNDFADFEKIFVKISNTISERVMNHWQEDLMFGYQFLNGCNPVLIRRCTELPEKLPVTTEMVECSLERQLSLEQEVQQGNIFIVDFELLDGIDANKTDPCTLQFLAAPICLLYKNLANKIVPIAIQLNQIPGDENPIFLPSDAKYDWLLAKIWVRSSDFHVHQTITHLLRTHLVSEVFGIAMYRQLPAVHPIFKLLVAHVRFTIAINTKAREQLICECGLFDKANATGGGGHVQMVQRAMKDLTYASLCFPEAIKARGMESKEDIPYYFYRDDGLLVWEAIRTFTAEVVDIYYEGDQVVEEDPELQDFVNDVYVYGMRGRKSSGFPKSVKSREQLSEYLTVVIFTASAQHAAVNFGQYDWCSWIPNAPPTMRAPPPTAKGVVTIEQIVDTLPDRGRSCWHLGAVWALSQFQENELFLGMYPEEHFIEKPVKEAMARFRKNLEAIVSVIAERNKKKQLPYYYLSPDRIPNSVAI
Test: Measurement of 5-LO enzyme activity in cell free system prepared from human leukocytes (direct)
Format: biochemical
Conditions: human polymorphonuclear leukocytes, 0.02 mM arachidonic acid, pH 7.5, 37° C., 5 minutes, read-out: 5-lipoxygenase enzyme inhibition, direct, IC50
pIC50: −log10 of the molar value.
Outcome: 1 (yes) for pIC50 of at least 6; 0 (no) for anything lower.

>  <Compound>
COc1cc2c(cc1O)[C@@H]1CC=C[C@@H]1O2 (relative stereo) [Example 5]

>  <Discrete Label>
0 (no)

$$$$
>  <Compound>
Cc1c(C)c2c(c(C)c1O)[C@@H]1CC=C[C@@H]1O2 (relative stereo) [Example 1]

>  <Discrete Label>
1 (yes)

$$$$
>  <Compound>
Cc1c(C)c2c(c(C)c1O)[C@H]1CCC=C[C@H]1O2 (relative stereo) [Example 23]

>  <Discrete Label>
1 (yes)

$$$$

// inclusive: pIC50 at least 6? input: CCOc1cc2c(cc1O)[C@@H]1CCC[C@@H]1O2 (relative stereo) [Example 8] 1 (yes)

pIC50 >= 6 for Cc1c(O)cc2c(c1C)O[C@H]1C=CC[C@@H]21 (relative stereo) [Example 3] ? 0 (no)
